# EXPERIMENT: P-glycoprotein substrates identified in KB-8-5-11 adenocarcinoma cell line, qHTS therapeutic library screen (AID 1346987); also: nearly all actives have a fitted effect of over 65% in size; also: potency is read from the fitted curve at half-maximal effect
# TEST_CONTEXT: KB-8-5-11 (P-gp overexpressing) viability, CellTiter-Glo, 72 h; series mostly up to 44.5 µM
Results filed as inconclusive are left out. The source made the active and inactive calls. Calls follow the shape of the dose curve; as a rule, active = well fitted inhibition curve with a large enough effect; inconclusive = small, poorly fitted or top-dose-only effect; inactive = flat fitted curve, though single readings scatter.
ASSAY_ENDPOINT: Potency

CCOC(=O)NC(O)C(Cl)(Cl)Cl (centres undefined) : inactive
CC(C)C(Br)C(=O)NC(N)=O (centres undefined) : inactive
COP(=S)(OC)Oc1ccc(S(N)(=O)=O)cc1 : inactive
CCC(=O)O[C@H]1CC[C@H]2[C@@H]3CCC4=CC(=O)CC[C@]4(C)[C@H]3CC[C@]12C : 2.78 µM (active)
